Counter-ions that a name gives are not always drawn.
Recorded below: pKi, system UniProt P29274.
Sequence (P29274 whole entry): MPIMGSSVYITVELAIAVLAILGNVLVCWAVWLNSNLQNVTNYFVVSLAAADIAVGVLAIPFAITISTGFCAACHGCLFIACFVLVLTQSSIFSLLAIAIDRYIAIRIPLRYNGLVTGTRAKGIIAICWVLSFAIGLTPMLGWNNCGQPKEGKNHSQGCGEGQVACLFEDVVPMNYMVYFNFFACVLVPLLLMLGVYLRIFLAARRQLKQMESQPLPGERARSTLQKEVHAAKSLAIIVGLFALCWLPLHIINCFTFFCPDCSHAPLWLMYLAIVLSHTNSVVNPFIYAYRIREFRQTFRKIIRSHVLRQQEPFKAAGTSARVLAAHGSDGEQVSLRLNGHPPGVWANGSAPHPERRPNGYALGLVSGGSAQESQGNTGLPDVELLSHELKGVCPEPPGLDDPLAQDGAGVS
# pKi is unitless: minus log10 of the molar concentration; print number only

Input line: What does the data say about its pKi? Entry: CCC(=O)N[C@H]1C[C@@H](n2cnc3c(NCCC(c4ccccc4)c4ccccc4)nc(NCCc4cn(CC)cn4)nc32)[C@H](O)[C@@H]1O
Output line: 8.05

Input line: May I ask what pKi has been recorded for CCC(=O)N[C@H]1C[C@@H](n2cnc3c(NCC(c4ccccc4)c4ccccc4)nc(C(=O)NCCNC(=O)NC4CCN(c5ccccn5)CC4)nc32)[C@H](O)[C@@H]1O ?
Output line: 8.70

Input line: For the molecule CCC(=O)N[C@H]1C[C@@H](n2cnc3c(NCC(c4ccccc4)c4ccccc4)nc(C(=O)NCCNC(=O)N[C@H]4CCN(c5ccccn5)C4)nc32)[C@H](O)[C@@H]1O [Example 47, trifluoroacetate] , what pKi is on record?
Output line: 8.70

Input line: Entry CCC(=O)N[C@H]1C[C@@H](n2cnc3c(NCC(c4ccccc4)c4ccccc4)nc(N4CC[C@@H](NC(=O)N[C@@H]5CCNC5)C4)nc32)[C@H](O)[C@@H]1O [Example 39, trifluoroacetate] : reported pKi = ?
Output line: 8.52

Input line: Fill in: pKi of CCC(=O)N[C@H]1C[C@@H](n2cnc3c(N)nc(NCCc4ccccc4)nc32)[C@H](O)[C@@H]1O is ___
Output line: 7.74

Measured values drawn from patent US8163754B2 for this set.
